Measured values drawn from the supplement of paper PMC6555819 for this set.

- System: PPARg:RXRa IVT, anti-PPARg (NR concentration 270 nM, RXRa partner concentration 90 nM)
- Assay Protocol: PBM binding z-score (relative to random genomic background probes); higher = stronger binding; sequences stand for … in GC…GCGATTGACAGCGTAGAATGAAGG
Parameter: PBM binding z-score
Give a plain numeric answer without units written out.

Example cases with answers are listed next.
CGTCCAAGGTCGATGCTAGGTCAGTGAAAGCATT: 0.816
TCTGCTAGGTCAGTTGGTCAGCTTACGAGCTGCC: 3.32

Q: Give PPARg:RXRa IVT, anti-PPARg (NR concentration 270 nM, RXRa partner concentration 90 nM) PBM binding z-score for `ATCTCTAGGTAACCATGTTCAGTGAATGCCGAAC`
Result: 2.88

Q: Give PPARg:RXRa IVT, anti-PPARg (NR concentration 270 nM, RXRa partner concentration 90 nM) PBM binding z-score for `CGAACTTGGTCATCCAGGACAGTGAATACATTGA`
Result: 1.08

Q: Give PPARg:RXRa IVT, anti-PPARg (NR concentration 270 nM, RXRa partner concentration 90 nM) PBM binding z-score for `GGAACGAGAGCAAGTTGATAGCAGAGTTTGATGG`
Result: -0.607

Q: Give PPARg:RXRa IVT, anti-PPARg (NR concentration 270 nM, RXRa partner concentration 90 nM) PBM binding z-score for `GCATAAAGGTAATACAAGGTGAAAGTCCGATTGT`
Result: 1.67

Q: Give PPARg:RXRa IVT, anti-PPARg (NR concentration 270 nM, RXRa partner concentration 90 nM) PBM binding z-score for `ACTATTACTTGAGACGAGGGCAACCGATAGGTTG`
Result: 1.15

Q: Give PPARg:RXRa IVT, anti-PPARg (NR concentration 270 nM, RXRa partner concentration 90 nM) PBM binding z-score for `TCTAGTTGGTCCCGGAGGTCACACACGACGGGTA`
Result: 1.82

Q: Give PPARg:RXRa IVT, anti-PPARg (NR concentration 270 nM, RXRa partner concentration 90 nM) PBM binding z-score for `CGTCAAAGTTTAACTAAGGTAACGTAAAGCACGC`
Result: 1.32

Q: Give PPARg:RXRa IVT, anti-PPARg (NR concentration 270 nM, RXRa partner concentration 90 nM) PBM binding z-score for `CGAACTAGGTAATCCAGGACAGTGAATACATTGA`
Result: 4.69

Q: Give PPARg:RXRa IVT, anti-PPARg (NR concentration 270 nM, RXRa partner concentration 90 nM) PBM binding z-score for `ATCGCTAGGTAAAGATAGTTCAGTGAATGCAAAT`
Result: -0.329

Q: Give PPARg:RXRa IVT, anti-PPARg (NR concentration 270 nM, RXRa partner concentration 90 nM) PBM binding z-score for `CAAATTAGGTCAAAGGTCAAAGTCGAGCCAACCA`
Result: 8.96

* * *

- Test system: PPARa:RXRa (NR concentration 270 nM, RXRa partner concentration 90 nM)
- Assay Protocol: PBM binding z-score (relative to random genomic background probes); higher = stronger binding; sequences stand for … in GC…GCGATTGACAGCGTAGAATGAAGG
Each record here notes measured PBM binding z-score.
Give a plain numeric answer without units written out.

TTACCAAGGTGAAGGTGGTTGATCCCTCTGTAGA: 1.41
AGTCAAAGTTCATCTAGGAAACGTAAGATATGCT: 4.85
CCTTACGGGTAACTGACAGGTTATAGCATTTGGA: 0.56
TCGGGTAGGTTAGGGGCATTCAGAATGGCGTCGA: 1.85
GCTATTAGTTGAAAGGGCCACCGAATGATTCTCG: 0.401

Q: Give PPARa:RXRa (NR concentration 270 nM, RXRa partner concentration 90 nM) PBM binding z-score for `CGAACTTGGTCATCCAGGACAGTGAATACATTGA`
Result: 0.208

Q: Give PPARa:RXRa (NR concentration 270 nM, RXRa partner concentration 90 nM) PBM binding z-score for `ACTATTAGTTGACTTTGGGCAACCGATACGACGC`
Result: -0.00502

Q: Give PPARa:RXRa (NR concentration 270 nM, RXRa partner concentration 90 nM) PBM binding z-score for `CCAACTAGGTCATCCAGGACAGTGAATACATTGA`
Result: 4.41

Q: Give PPARa:RXRa (NR concentration 270 nM, RXRa partner concentration 90 nM) PBM binding z-score for `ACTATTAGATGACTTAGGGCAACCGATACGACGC`
Result: 0.0577

Q: Give PPARa:RXRa (NR concentration 270 nM, RXRa partner concentration 90 nM) PBM binding z-score for `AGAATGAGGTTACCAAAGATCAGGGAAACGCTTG`
Result: 3.65

Q: Give PPARa:RXRa (NR concentration 270 nM, RXRa partner concentration 90 nM) PBM binding z-score for `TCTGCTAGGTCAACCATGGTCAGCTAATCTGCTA`
Result: 3.52

Q: Give PPARa:RXRa (NR concentration 270 nM, RXRa partner concentration 90 nM) PBM binding z-score for `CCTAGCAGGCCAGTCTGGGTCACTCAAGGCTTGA`
Result: 2.13
